Molecular target: SARS-CoV-2 RBD (RBD-2) (SARS-CoV-2)
Assay: flow, HeLa-ACE2, mAb:RBD=4:1
Metric: MFI (RBD binding to cell surface)
Reply briefly: the number, and no unit.

Consider the reported MFI (RBD binding to cell surface) for these binders:
L12.bP11A11 (antibody, V domains shown, human IgG1) VH: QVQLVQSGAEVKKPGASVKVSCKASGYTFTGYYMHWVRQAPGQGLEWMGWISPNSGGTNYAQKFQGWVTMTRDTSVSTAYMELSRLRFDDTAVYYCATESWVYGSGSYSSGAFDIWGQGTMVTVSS VL: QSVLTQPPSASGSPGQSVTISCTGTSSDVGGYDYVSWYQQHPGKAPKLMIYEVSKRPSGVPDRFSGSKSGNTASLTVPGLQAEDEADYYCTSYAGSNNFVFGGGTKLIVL | 5190
L12.cP08A09 (antibody, V domains shown, human IgG1) VH: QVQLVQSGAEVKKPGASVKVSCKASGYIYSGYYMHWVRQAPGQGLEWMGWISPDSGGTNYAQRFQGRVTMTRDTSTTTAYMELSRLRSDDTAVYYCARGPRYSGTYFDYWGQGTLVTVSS VL: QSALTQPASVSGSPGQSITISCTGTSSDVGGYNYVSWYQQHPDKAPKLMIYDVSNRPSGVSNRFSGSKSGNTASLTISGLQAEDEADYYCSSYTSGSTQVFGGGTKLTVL | 5740
L12.cP08D10 (antibody, V domains shown, human IgG1) VH: EVQLVQSGAEVKKPGASVKVSCKASGYIFSGYYMHWVRQAPGQGLEWMGWISPDSGGTNYAQNFQGRVTMTRDTSISTGYMELSRLRSDDTAMYYCARGPRYSGTYFDYWGQGVLVTVSS VL: QSVLTQPASVSGSPGQSITISCTGTSSDVGGYNYVSWYQQHPGKVPKLMIYDVSNRPSGVSNRFSGSKSGNTASLTISGLQAEDEADYYCSSYTSSSAQVFGGGTKLTVL | 9710
L12.cP08D07 (antibody, V domains shown, human IgG1) VH: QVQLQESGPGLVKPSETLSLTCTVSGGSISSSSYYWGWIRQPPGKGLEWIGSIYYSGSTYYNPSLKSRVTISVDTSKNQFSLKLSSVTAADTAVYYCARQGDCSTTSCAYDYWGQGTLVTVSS VL: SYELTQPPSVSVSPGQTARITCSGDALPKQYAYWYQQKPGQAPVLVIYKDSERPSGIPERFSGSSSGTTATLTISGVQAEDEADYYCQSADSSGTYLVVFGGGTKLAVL | 11600

// query Look up MFI (RBD binding to cell surface) of L12.bP12H09 (antibody, V domains shown, human IgG1) VH: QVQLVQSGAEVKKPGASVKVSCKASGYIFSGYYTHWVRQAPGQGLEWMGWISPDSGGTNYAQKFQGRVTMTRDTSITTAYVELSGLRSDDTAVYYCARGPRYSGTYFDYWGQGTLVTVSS VL: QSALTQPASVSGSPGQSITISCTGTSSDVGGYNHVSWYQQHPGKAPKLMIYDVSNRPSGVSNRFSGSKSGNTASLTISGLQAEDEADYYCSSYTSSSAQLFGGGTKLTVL and report it.
// result 5100
